Assay: Phase 1 clinical trial: plasma pharmacokinetics
Format: in vivo, human
Conditions: human, plasma, oral, 240 mg, Cycle 1, Day 1; 480 mg (240 mg BID); cut-off March 2024; read-out: Cmax
Protocol: Summary statistics based on preliminary data were obtained for the pharmacokinetics of Compound 1 in patients receiving once-daily doses ranging from 20 mg to 240 mg (Table 5). The mean plasma concentration-time curves of Compound 1 in the once-daily dose groups ranging from 20 mg to 240 mg are shown in Figure 11. In this study, one cycle consists of 28 days, and Cycle 1 Day 1 refers to Day 1 of the first cycle. […] Accumulation was observed after repeated administration. […]
Measured Property: Cmax
# do not omit the unit; it follows the number

Recorded result, CC1(C)Oc2cc(Cl)ccc2[C@@H]2OCC3(CCN(CCn4ccnc4)CC3)C[C@H]21 , Cmax: 143 ng/mL

###

assay: Phase 1 clinical trial: plasma pharmacokinetics; assay type: in vivo, human; settings: human, plasma, oral, 40 mg, Cycle 2 Day 1; 40 mg, QD; cut-off April 2023; read-out: AUC0-24 (mean)
Measured Property: AUC(0-t) (ng·h/mL)
API: value field is a number in ng·h/mL; no unit string.

Record CC1(C)Oc2cc(Cl)ccc2[C@@H]2OCC3(CCN(CCn4ccnc4)CC3)C[C@H]21 , field AUC(0-t): 1180

###

assay: Phase 1 clinical trial: plasma pharmacokinetics; type: in vivo, human; settings: human, plasma, oral, 120 mg, Cycle 2 Day 1; 120 mg, QD; cut-off April 2023; read-out: AUC0-24 (median)
Measured Property: AUC(0-t)
Remember to quote the unit after the number.

Kindly note the recorded AUC(0-t) for CC1(C)Oc2cc(Cl)ccc2[C@@H]2OCC3(CCN(CCn4ccnc4)CC3)C[C@H]21 , which is 2330 ng·h/mL

###

Assay: Phase 1 clinical trial: plasma pharmacokinetics
Type: in vivo, human
Conditions: human, plasma, oral, 40 mg, Cycle 1, Day 1; 40 mg QD; tau = 24 hours; cut-off March 2024; read-out: AUCtau [b]
Method: Summary statistics based on preliminary data were obtained for the pharmacokinetics of Compound 1 in patients receiving once-daily doses ranging from 20 mg to 240 mg (Table 5). The mean plasma concentration-time curves of Compound 1 in the once-daily dose groups ranging from 20 mg to 240 mg are shown in Figure 11. In this study, one cycle consists of 28 days, and Cycle 1 Day 1 refers to Day 1 of the first cycle. […] Accumulation was observed after repeated administration. […]
Measured Property: AUC
Hey, just the number and the unit after it is fine.

Measured AUC of CC1(C)Oc2cc(Cl)ccc2[C@@H]2OCC3(CCN(CCn4ccnc4)CC3)C[C@H]21 [Compound 1] : 131 ng·h/mL

###

experiment: Phase 1 clinical trial: plasma pharmacokinetics; assay type: in vivo, human; settings: human, plasma, oral, 20 mg, Cycle 2 Day 1; 20 mg, QD; cut-off April 2023; read-out: Tmax (mean)
Measured Property: Tmax (h)
Hi! Could you send only the number? It should be in h, unit omitted.

Form: molecule = CC1(C)Oc2cc(Cl)ccc2[C@@H]2OCC3(CCN(CCn4ccnc4)CC3)C[C@H]21 ; Tmax = 7

###

assay: Phase 1 clinical trial: plasma pharmacokinetics; type: in vivo, human; details: human, plasma, oral, 240 mg, Cycle 2, Day 1; 480 mg (240 mg BID); n=1; tau = 12 hours; cut-off March 2024; read-out: AUCtau,ss [b]
Measured Property: AUC (ng·h/mL)
Numeric answer only, unit ng·h/mL assumed.

// CC1(C)Oc2cc(Cl)ccc2[C@@H]2OCC3(CCN(CCn4ccnc4)CC3)C[C@H]21 : AUC value = 3180

###

assay: Phase 1 clinical trial: plasma pharmacokinetics; type: in vivo, human; details: human, plasma, oral, 20 mg, Cycle 2 Day 1; 20 mg, QD; cut-off April 2023; read-out: AUC0-24 (geometric mean)
Measured Property: AUC(0-t) (ng·h/mL)
// units = ng·h/mL; emit number, no label

Documented AUC(0-t) of CC1(C)Oc2cc(Cl)ccc2[C@@H]2OCC3(CCN(CCn4ccnc4)CC3)C[C@H]21 : 557

###

assay: Phase 1 clinical trial: plasma pharmacokinetics; format: in vivo, human; details: human, plasma, oral, 80 mg, Cycle 2, Day 1; 80 mg QD; cut-off March 2024; read-out: Cmax,ss
Measured Property: Cmax (ng/mL)
// note: answer is a bare numeric in ng/mL

For record CC1(C)Oc2cc(Cl)ccc2[C@@H]2OCC3(CCN(CCn4ccnc4)CC3)C[C@H]21 the listed Cmax is 63.2

###

assay: Phase 1 clinical trial: plasma pharmacokinetics; assay type: in vivo, human; conditions: human, plasma, oral, 40 mg, Cycle 2 Day 1; 40 mg, QD; cut-off April 2023; read-out: Cmax (median)
Measured Property: Cmax (ng/mL)
Give a bare numeral; the unit ng/mL is implied.

CC1(C)Oc2cc(Cl)ccc2[C@@H]2OCC3(CCN(CCn4ccnc4)CC3)C[C@H]21 [Compound 1] has a reported Cmax of 72

###

experiment: Phase 1 clinical trial: plasma pharmacokinetics; type: in vivo, human; conditions: human, plasma, oral, 180 mg, Cycle 2 Day 1; 180 mg, QD; cut-off April 2023; read-out: Cmax (geometric mean)
Measured Property: Cmax

// field: Cmax; key: CC1(C)Oc2cc(Cl)ccc2[C@@H]2OCC3(CCN(CCn4ccnc4)CC3)C[C@H]21 [Compound 1] ; value = 281 ng/mL

###

assay: Phase 1 clinical trial: plasma pharmacokinetics; assay type: in vivo, human; settings: human, plasma, oral, 20 mg, Cycle 1 Day 1; 20 mg, QD; cut-off April 2023; read-out: Tmax (median)
Measured Property: Tmax (h)
# number only, unit h dropped from output

According to the records, this compound CC1(C)Oc2cc(Cl)ccc2[C@@H]2OCC3(CCN(CCn4ccnc4)CC3)C[C@H]21 [Compound 1] displays Tmax of 6

###

assay: Phase 1 clinical trial: plasma pharmacokinetics; format: in vivo, human; settings: human, plasma, oral, 240 mg, Cycle 1 Day 1; 240 mg, QD; cut-off April 2023; read-out: AUC0-24 (geometric mean)
Measured Property: AUC(0-t) (ng·h/mL)
# output: bare number, implied unit ng·h/mL

Given item CC1(C)Oc2cc(Cl)ccc2[C@@H]2OCC3(CCN(CCn4ccnc4)CC3)C[C@H]21 , the value recorded as its AUC(0-t) is 1480

###

experiment: Phase 1 clinical trial: plasma pharmacokinetics; type: in vivo, human; conditions: human, plasma, oral, 40 mg, Cycle 1 Day 1; 40 mg, QD; cut-off April 2023; read-out: AUC0-24 (geometric mean)
Measured Property: AUC(0-t) (ng·h/mL)
I only need the number, in ng·h/mL, no unit after it.

Note to self: AUC(0-t) recorded for CC1(C)Oc2cc(Cl)ccc2[C@@H]2OCC3(CCN(CCn4ccnc4)CC3)C[C@H]21 [Compound 1] was 123

###

assay: Phase 1 clinical trial: plasma pharmacokinetics; assay type: in vivo, human; settings: human, plasma, oral, 240 mg, Cycle 2 Day 1; 240 mg, QD; cut-off April 2023; read-out: Cmax (geometric mean)
Measured Property: Cmax (ng/mL)
State just the number; it will be interpreted in ng/mL.

// recorded Cmax for CC1(C)Oc2cc(Cl)ccc2[C@@H]2OCC3(CCN(CCn4ccnc4)CC3)C[C@H]21 : 359

###

assay: Phase 1 clinical trial: plasma pharmacokinetics; assay type: in vivo, human; conditions: human, plasma, oral, 360 mg, Cycle 2, Day 1; 360 mg QD; cut-off March 2024; read-out: Cmax,ss
Measured Property: Cmax (µg/mL)
# output: bare number, implied unit µg/mL

For record CC1(C)Oc2cc(Cl)ccc2[C@@H]2OCC3(CCN(CCn4ccnc4)CC3)C[C@H]21 the listed Cmax is 0.489

###

test: Phase 1 clinical trial: plasma pharmacokinetics; type: in vivo, human; conditions: human, plasma, oral, 360 mg, Cycle 1, Day 1; 360 mg QD; tau = 24 hours; cut-off March 2024; read-out: AUCtau [b]
Measured Property: AUC
Answer format reminder: number followed by unit.

The compound listed as CC1(C)Oc2cc(Cl)ccc2[C@@H]2OCC3(CCN(CCn4ccnc4)CC3)C[C@H]21 [Compound 1] has a reported AUC of 4110 ng·h/mL

###

experiment: Phase 1 clinical trial: plasma pharmacokinetics; assay type: in vivo, human; details: human, plasma, oral, 180 mg, Cycle 1, Day 1; 180 mg QD; tau = 24 hours; cut-off March 2024; read-out: AUCtau [b]
Measured Property: AUC
Please answer using the number first and the unit second.

The measured AUC associated with CC1(C)Oc2cc(Cl)ccc2[C@@H]2OCC3(CCN(CCn4ccnc4)CC3)C[C@H]21 reads 1370 ng·h/mL

###

assay: Phase 1 clinical trial: plasma pharmacokinetics; type: in vivo, human; conditions: human, plasma, oral, 80 mg, Cycle 1 Day 1; 80 mg, QD; cut-off April 2023; read-out: Tmax (mean)
Measured Property: Tmax (h)
Write the value in h as a bare number.

response.value for CC1(C)Oc2cc(Cl)ccc2[C@@H]2OCC3(CCN(CCn4ccnc4)CC3)C[C@H]21 (field: Tmax) = 8
